Molecular target: T1, TauC3 (C-terminally truncated tau fragment ending at aspartate 421 of htau40) (human, UniProt P10636 1-738)
T1 construct: Generated and purified by Genscript; also called Human TauC3; recombinant TauC3 protein
T1 sequence (P10636 other isoform, or with tags, fused parts or gaps): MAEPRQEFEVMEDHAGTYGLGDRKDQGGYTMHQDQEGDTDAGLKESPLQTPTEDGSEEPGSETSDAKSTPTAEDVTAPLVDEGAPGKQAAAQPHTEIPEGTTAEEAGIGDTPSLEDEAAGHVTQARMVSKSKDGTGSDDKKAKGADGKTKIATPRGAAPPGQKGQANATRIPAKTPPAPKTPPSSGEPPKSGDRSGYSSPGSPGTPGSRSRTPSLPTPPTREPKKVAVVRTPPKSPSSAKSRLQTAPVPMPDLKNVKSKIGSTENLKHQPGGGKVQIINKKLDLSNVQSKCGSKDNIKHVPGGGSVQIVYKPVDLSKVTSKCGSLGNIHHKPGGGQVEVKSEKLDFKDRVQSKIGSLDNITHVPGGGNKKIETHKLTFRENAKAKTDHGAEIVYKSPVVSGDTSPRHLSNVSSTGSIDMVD
Assay: Biacore off-rate ranking, TauC3 amine-coupled on CM5, one antibody concentration; two-phase decay fit, slow phase
Design: unit not given here
quantity_kind: Kslow
Numbers only.

Worked examples follow.
{"binder": "Tau01 HCKB HuG4K (antibody, V domains shown, human IgG4 kappa (HuG4K)) VH: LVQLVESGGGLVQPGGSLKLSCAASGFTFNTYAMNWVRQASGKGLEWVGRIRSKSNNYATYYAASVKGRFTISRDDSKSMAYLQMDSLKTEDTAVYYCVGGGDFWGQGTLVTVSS VL: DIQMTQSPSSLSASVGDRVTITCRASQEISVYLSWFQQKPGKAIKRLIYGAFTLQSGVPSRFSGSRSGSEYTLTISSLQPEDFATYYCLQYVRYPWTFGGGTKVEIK", "quantity_kind": "Kslow", "observed": 0.012}
{"binder": "Tau01 HMKA (antibody, V domains shown, human IgG4 kappa (HuG4K)) VH: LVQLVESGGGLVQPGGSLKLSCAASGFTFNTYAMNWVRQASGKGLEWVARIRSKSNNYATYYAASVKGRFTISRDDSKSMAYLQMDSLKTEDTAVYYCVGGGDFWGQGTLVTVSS VL: DIQMTQSPSSLSASVGDRVTITCRASQEISVYLGWYQQKPGKAPKRLIYGAFKLQSGVPSRFSGSRSGTEFTLTISSLQPEDFATYYCLQYVRYPWTFGGGTKVEIK", "quantity_kind": "Kslow", "observed": 0.000815}

Read the next record carefully.
[ask] Retrieve Kslow measured for Tau01 HMKG (antibody, V domains shown, human IgG4 kappa (HuG4K)) VH: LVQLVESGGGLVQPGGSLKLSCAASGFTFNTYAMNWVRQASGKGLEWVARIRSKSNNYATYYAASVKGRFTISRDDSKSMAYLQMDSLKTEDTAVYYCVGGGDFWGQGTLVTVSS VL: DIQMTQSPSSLSASVGDRVTITCRASQEISVYLGWYQQKPGKAPKRLIYGAFTLQSGVPSRFSGSRSGTEFTLTISSLQPEDFATYYCLQYVRYPWTFGGGTKVEIK and print it.
[reply] 0.000384
